Each recorded value in this set is attributed to paper PMC9482650.

Assay Target: Inadl_3, Q8NI35
Sequence (Q8NI35 359-469): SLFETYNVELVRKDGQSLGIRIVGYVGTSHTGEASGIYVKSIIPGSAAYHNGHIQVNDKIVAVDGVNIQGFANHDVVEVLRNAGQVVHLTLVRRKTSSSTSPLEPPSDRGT
Method: holdup assay
Set-up: key: below the threshold = too weak to quantify, mostly under pKd 3.1 to 4
Condition Info: plain residues with an end cap or a label only (N-terminal biotin on a linker: ado-ado)
Measured Parameter: pKd

Binder	pKd
ELKAEDEVQI [DCHS2, Q6V1P9]	below the threshold
DLLGGGSDSI [TNRC6B, Q9UPQ9]	below the threshold
TNSKQGETTV [FZD1, Q9UP38]	below the threshold
MQILSKPEFI [NPSR1, Q6W5P4]	below the threshold
SQPLLVHDDV [KIT, P10721]	below the threshold

Respond only with pKd recorded for NKSEPFLTWL [WWTR1, Q9GZV5]
4.35

Return pKd (reported value) for this binder: NTALVESEDL [PALLS, Q8WX93;Q8WX93-1]
below the threshold

Find the measured pKd of QLKSGRDSTV [TMEM178A, Q8NBL3] and report it.
below the threshold

State its pKd for this binder: DYSNLRETDI [ADRA1D, P25100]
3.84

Please give measured pKd of the following entry: VKQYADVEGF [HNRNPK, P61978;P61978-2]
below the threshold

Give a short answer stating reported pKd for EPAKETTTNV [SLC2A3, P11169] .
below the threshold
